Origin of measurements: ChEMBL document CHEMBL4689842

# Test system: U2OS
# procedure-details: Multiplex assay against U2OS
# Type: toxicity, cell-based
# assay-context: human, 12 h, 10 µM, compound concentration 10 uM, replicate 1
measurement-type: Population Apoptotic (%)
Give just the numeric value; % need not be written.

Prompt: For CN(C)C(=O)N[C@H]1CC[C@H](CCN2CCN(c3cccc(Cl)c3Cl)CC2)CC1.Cl [CARIPRAZINE HYDROCHLORIDE] , what is its reported Population Apoptotic (%)?
Response: 50

Further cases:
Prompt: For CN1CCN(CCOc2cc(OC3CCOCC3)c3c(Nc4c(Cl)ccc5c4OCO5)ncnc3c2)CC1 , what is its reported Population Apoptotic (%)?
Response: 63

Prompt: Another molecule: O=C1NCN(c2ccccc2)C12CCN(CCCOc1ccc(F)cc1)CC2 [SPIRAMIDE]
Response: 36

* * *

# Tested on: HEK-293T
# procedure-details: Multiplex assay against HEK293T
# Format: toxicity, cell-based
# assay-context: human, 12 h, 1 µM, compound concentration 1 uM, replicate 2
measurement-type: Population Pyknosed Nuclei (%)
Give just the numeric value; % need not be written.

Some entries whose results are on file:
Prompt: For CN(C)C(=O)/C(C#N)=C/c1ccc(-c2nc3cnc4[nH]ccc4c3n2C2CCCCC2)o1 , what is its reported Population Pyknosed Nuclei (%)?
Response: 46

Prompt: Another molecule: c1cn2cc(-c3ccc4cn[nH]c4c3)nc(Nc3ccc(N4CCOCC4)cc3)c2n1
Response: 60

Prompt: Another molecule: Cc1nc(-c2cn3c(n2)-c2ccc(-c4cnn(C(C)(C)C(N)=O)c4)cc2OCC3)n(C(C)C)n1
Response: 16

Prompt: Another molecule: CN(C)C(=O)N[C@H]1CC[C@H](CCN2CCN(c3cccc(Cl)c3Cl)CC2)CC1.Cl [CARIPRAZINE HYDROCHLORIDE]
Response: 53

Prompt: Another molecule: C=CC(=O)Nc1cc2c(Nc3ccc(F)c(Cl)c3)ncnc2cc1OCCCN1CCOCC1.Cl.Cl [CANERTINIB DIHYDROCHLORIDE]
Response: 14

Prompt: Another molecule: OC1(c2ccc(Cl)cc2)CCN(Cc2c[nH]c3ccccc23)CC1
Response: 63

Further cases:
Prompt: For C[C@@]1(C(=O)Nc2ccc(F)nc2)CCCN1c1nc(Nc2cc(C3CC3)n[nH]2)c2cccn2n1 , what is its reported Population Pyknosed Nuclei (%)?
Response: 23

* * *

# Tested on: HEK-293T
# procedure-details: Multiplex assay against HEK293T
# Type: toxicity, cell-based
# assay-context: human, 48 h, 10 µM, compound concentration 10 uM, replicate 1
Just so you know, the groups by Population Pyknosed Nuclei (%) go like this: low: < 40%; middle: ≥ 40% and < 70%; high: ≥ 70%

# count of solved cases: 10
Prompt: Which category does the recorded Population Pyknosed Nuclei (%) put CN1CCN(CCOc2cc(OC3CCOCC3)c3c(Nc4c(Cl)ccc5c4OCO5)ncnc3c2)CC1 [SARACATINIB] in?
Response: middle

Prompt: Another molecule: CC(C)NCC(O)COc1ccc(CCOCC2CC2)cc1.Cl (configuration not stated) [BETAXOLOL HYDROCHLORIDE]
Response: low

Prompt: Another molecule: C=CC(=O)Nc1ccc2ncnc(Nc3ccc(OCc4cccc(F)c4)c(Cl)c3)c2c1.Cc1ccc(S(=O)(=O)O)cc1
Response: low

Prompt: Another molecule: CCOCCn1cc(C(=O)Nc2ccc(-n3nc(-c4cccnc4)cc3C(F)(F)F)cn2)ccc1=O [BI 1935]
Response: middle

Prompt: Another molecule: CN1CCC[C@@H]1CCO[C@](C)(c1ccccc1)c1ccc(Cl)cc1.O=C(O)/C=C/C(=O)O [CLEMASTINE FUMARATE]
Response: high

Prompt: Another molecule: CN(C)C(=O)/C(C#N)=C/c1ccc(-c2nc3cnc4[nH]ccc4c3n2C2CCCCC2)o1
Response: low

Prompt: Another molecule: Cn1cc(-c2[nH]c3cc(NC(=O)[C@H](N)C4CCCCC4)cc4c3c2C=NNC4=O)cn1
Response: high

Prompt: Another molecule: CN(C)C(=O)N[C@H]1CC[C@H](CCN2CCN(c3cccc(Cl)c3Cl)CC2)CC1.Cl [CARIPRAZINE HYDROCHLORIDE]
Response: middle

Prompt: Another molecule: Cc1c(-c2ccc(O)cc2)n(Cc2ccc(OCCN3CCCCCC3)cc2)c2ccc(O)cc12 [BAZEDOXIFENE]
Response: high

Prompt: Another molecule: c1cn2cc(-c3ccc4cn[nH]c4c3)nc(Nc3ccc(N4CCOCC4)cc3)c2n1 [ENTOSPLETINIB]
Response: low

Further cases:
Prompt: Which category does the recorded Population Pyknosed Nuclei (%) put COc1cccc([C@@H](C)NCCCc2ccccc2Cl)c1.Cl [TECALCET HYDROCHLORIDE] in?
Response: low
